# target.entity: Potassium channel subfamily K member 3 (Homo sapiens)
# assay: human KCNK3 channel inhibitors, primary screen, CHO cells, FluxOR thallium flux, B-score (AID 602410);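 as to B-score: more negative B-score means stronger inhibition of thallium flux through KCNK3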
# condition.parameters: FluxOR fluorescence, at 10 µM
Among all 340,000 compounds or so, about 2,800 (0.82%) were called active.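 The calls were made as follows: active = B-score under library mean minus 4 SD, starting fluorescence ratio at most library mean plus 5 SD; inactive = the rest.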 What follows is part of a selection rich in actives, with near analogues and random picks from the rest.
Entry note: the call must match one of YES (active), NO (inactive)

| compound | discrete.label |
| --- | --- |
| COc1ccc(NC(=O)CN(C)C(=O)/C=C/c2cn(Cc3ccccc3)nc2-c2cccnc2)cc1 | NO |
| CCNC(=O)CC1C(=O)N(c2ccc(OC)cc2)C(=O)N1CCOC (stereo not given) | NO |
| CC[C@]1(C(=O)OC)[C@H]2C(=O)N(Cc3ccccc3)C(=O)[C@H]2[C@H]2CN=C(SCc3ccc(C#N)cc3)N21 | NO |
| Cc1ccc(NC(=O)COc2ccc(-n3ccnc3)cc2)cc1Cl | NO |
| COc1cccc(NC(=O)CN(C)C(=O)/C=C/c2cn(-c3ccccc3)nc2-c2cccs2)c1 | YES |
| COc1ccccc1-n1c(=S)[nH]c2c(sc(=S)n2-c2ccc(C)cc2C)c1=O | NO |
| COc1cccc(-n2c(=S)sc3c(=O)n(-c4ccccc4OC)c(SCC4OCCO4)nc32)c1 | NO |
| CC(c1ccccn1)N(CCN(C)C)C(=S)Nc1ccccc1F (stereo not given) | NO |
| CSc1cccc(NC(=S)N(C(C)C)C(C)c2ccccn2)c1 (stereo not given) | YES |

With those in mind, consider the next compound.
Tell me the recorded outcome of this test for `COc1cccc(NC(=O)CN(C)C(=O)/C=C/c2cc(OC)ccc2OC)c1` .
NO
